system: HCT-15; experiment: Potentiation of daunorubicin (50 nM) in human colon tumor cells HCT-15 (cell survival, Coulter counter); format: cell-based; details: HCT-15, read-out: IC50, HCT-15 (concentration required to reduce cell survival by 50%)
Measured metric: pIC50
Notebook: values listed as pIC50 are -log10 of the concentration (mol/L).

Requested field: pIC50. Item: COc1ccc(CCN(C)CCCC(C#N)(c2ccc(OC)c(OC)c2)C(C)C)cc1OC (centres unmarked)
6.30

----------
system: AT-1; test: Potentiation of daunorubicin (30 nM) in rat prostatic tumor cells AT-1 (cell survival, Coulter counter); assay type: cell-based; settings: with daunorubicin 30 nM, 24 h, then 96 h drug free, AT-1, read-out: IC50, AT-1 (concentration required to reduce cell survival by 50%)
Please provide measured IC50 for the entries that follow.
Returns: string containing the numeric result and its unit.

Fill in the recorded IC50 for this molecule, with AT-1 as test system: CCCCN(CCCC)CCCNC(=O)OC(C)[C@H]1CC[C@H]2[C@@H]3CCC4=CC(=O)CC[C@]4(C)[C@H]3CC[C@]12C (stereo partly shown)
210 nM

Another molecule to look at: CC(=O)[C@H]1CC[C@H]2[C@@H]3CCC4=CC(=O)CC[C@]4(C)[C@H]3C(OC(=O)N(Cc3ccccc3)Cc3ccccc3)C[C@]12C (stereo partly shown)
150 nM

Same for CCCCN(CCCC)CCCNC(=O)OC1CC[C@@]2(C)C(=CC[C@H]3[C@@H]4CC[C@H](C(C)=O)[C@@]4(C)CC[C@@H]32)C1 (stereo partly shown)
190 nM

Then what about the molecule CCCCN(CCCC)C(=O)OC1C[C@]2(C)[C@@H](C(C)=O)CC[C@H]2[C@@H]2CCC3=CC(=O)CC[C@]3(C)[C@@H]12 (stereo partly shown) ?
760 nM

----------
test system: AT-1; test: Potentiation of daunorubicin (30 nM) in rat prostatic tumor cells AT-1 (cell survival, Coulter counter); type: cell-based; conditions: read-out: IC50, AT-1 (concentration required to reduce cell survival by 50%)
Measured metric: IC50 (µM)
Write the number in µM without appending the unit.

Please look up its IC50: COc1ccc(CCN(C)CCCC(C#N)(c2ccc(OC)c(OC)c2)C(C)C)cc1OC (stereo not shown)
0.74

Cited source: patent US6046182A
